Ki for S1P1 (Homo sapiens (Human), UniProt P21453), merged from several publications.
Consider the following partition of reported Ki into named classes: group A (below 2 nM), group B (2 nM to below 40 nM), group C (40 nM or more)

Q. Kindly identify the class of COc1ccc(F)cc1-c1noc(-c2ccc(N3CCCCC3C)c([N+](=O)[O-])c2)n1 (centres unmarked) .
A. group A

Q. Kindly identify the class of Cc1cc(-c2nc(-c3ccc4[nH]cnc4c3)no2)cnc1N1CCCCC1C (centres unmarked) .
A. group B

Q. Kindly identify the class of COc1ncccc1-c1ccc(-c2nc(-c3ccc(C(=O)O)c(F)c3)no2)cc1C .
A. group C

Q. Kindly identify the class of COc1ccccc1-c1noc(-c2ccc(N3CCCCC3C)c(C(F)(F)F)c2)n1 (centres unmarked) .
A. group B

Q. Kindly identify the class of Cc1ccccc1-c1ccc(-c2nc(-c3ccc(C(=O)O)c(F)c3)no2)cc1COC(C)C .
A. group C

Q. Kindly identify the class of O=C(O)CCNCc1ccc(-c2noc(-c3cnn(C4CCCCC4)c3C3CCOCC3)n2)cc1 .
A. group A

Q. Kindly identify the class of CC1CCCCN1c1ccc(-c2nc(-c3ccccc3OC(F)(F)F)no2)cc1C(F)(F)F (centres unmarked) .
A. group B

Q. Kindly identify the class of COCc1cc(-c2nc(-c3ccc(C(=O)NCCCC(=O)O)c(F)c3)no2)ccc1-c1ccccc1C .
A. group B

Q. Kindly identify the class of COCc1cc(-c2nc(-c3ccc4c(c3)CN(CCC(=O)O)CC4)no2)ccc1-c1ccccc1C .
A. group A

Q. Kindly identify the class of CCOc1cc(-c2nc(-c3ccc(C(=O)O)c(F)c3)no2)ccc1-c1ccccc1C .
A. group B

Q. Kindly identify the class of COCc1c(-c2nc(-c3cccc(COCCC(=O)O)c3)no2)cnn1C1CCCCC1 .
A. group C

Q. Kindly identify the class of Cc1ccccc1-c1ccc(-c2nc(-c3ccc(C(=O)O)c(Cl)c3)no2)cc1C .
A. group C

Q. Kindly identify the class of COc1ccccc1-c1noc(-c2ccc(CC(C)C)cc2)n1 .
A. group C

Q. Kindly identify the class of COc1ccc(F)cc1-c1noc(-c2ccc(-c3ccccc3C)c(CN(C)C)c2)n1 .
A. group B

====

pKi for S1P1 (Homo sapiens (Human), UniProt P21453), merged from several publications.
pKi is a log-scale quantity: -log10 of the concentration expressed in molar.

S1P1 (Homo sapiens (Human), UniProt P21453) assay, compound COCc1cc(-c2nc(-c3ccc(CO)cc3)no2)ccc1-c1ccccc1C , recorded pKi = 8.15

S1P1 (Homo sapiens (Human), UniProt P21453) assay, compound CCCS(=O)(=O)Nc1cc(-c2nc(-c3ccc(C(=O)O)c(F)c3)no2)ccc1N1CCCCC1C (centres unmarked) , recorded pKi = 6.35

S1P1 (Homo sapiens (Human), UniProt P21453) assay, compound O=C(O)c1ccc(-c2noc(-c3ccc(-c4ccccc4C(F)(F)F)cc3)n2)cc1F , recorded pKi = 5.61

S1P1 (Homo sapiens (Human), UniProt P21453) assay, compound CC1CCCCN1c1ccc(-c2nc(-c3ccc4c(c3)CN(CCC(=O)O)CC4)no2)cc1C(F)(F)F (centres unmarked) , recorded pKi = 9.12

S1P1 (Homo sapiens (Human), UniProt P21453) assay, compound CC1CCCCN1c1ccc(-c2nc(-c3ccc(C(=O)O)c(F)c3)no2)cc1C(F)(F)F (centres unmarked) , recorded pKi = 6.96

S1P1 (Homo sapiens (Human), UniProt P21453) assay, compound c1cc(-c2c(-c3nc(-c4ccc(CCn5cncn5)cc4)no3)cnn2C2CCCCC2)ccn1 , recorded pKi = 8.34

S1P1 (Homo sapiens (Human), UniProt P21453) assay, compound CC(C)Cn1ncc(-c2nc(-c3ccc(CN4CC(C(=O)O)C4)cc3)no2)c1C1CCOCC1 , recorded pKi = 8.19

S1P1 (Homo sapiens (Human), UniProt P21453) assay, compound COCc1cc(-c2nc(-c3ccc(C(=O)NC(C)CC(=O)O)c(F)c3)no2)ccc1-c1ccccc1C (centres unmarked) , recorded pKi = 8.40

S1P1 (Homo sapiens (Human), UniProt P21453) assay, compound COCc1cc(-c2nc(-c3ccc4c(c3)CN(CC(=O)O)CC4)no2)ccc1-c1ccccc1C , recorded pKi = 9.15

S1P1 (Homo sapiens (Human), UniProt P21453) assay, compound CC(C)Cn1ncc(-c2nc(-c3ccc(CN4CC(C(=O)O)C4)cc3)no2)c1-c1ccncc1 , recorded pKi = 8.64

S1P1 (Homo sapiens (Human), UniProt P21453) assay, compound Cc1cc(-c2nc(-c3ccc(C(=O)O)c(F)c3)no2)ccc1-c1cscc1C , recorded pKi = 7.40

S1P1 (Homo sapiens (Human), UniProt P21453) assay, compound COCc1c(-c2nc(-c3ccc(COCCCC(=O)O)cc3)no2)cnn1C1CCCCC1 , recorded pKi = 6.91

S1P1 (Homo sapiens (Human), UniProt P21453) assay, compound COCc1cc(-c2nc(-c3ccc(C(=O)O)c(Cl)c3)no2)ccc1-c1ccccc1C , recorded pKi = 7.59

S1P1 (Homo sapiens (Human), UniProt P21453) assay, compound COc1ccccc1-c1noc(-c2ccc(-c3ccccc3C)c(C)c2)n1 , recorded pKi = 7.80

S1P1 (Homo sapiens (Human), UniProt P21453) assay, compound Cc1ccccc1-c1ccc(-c2nc(-c3ccc(NCC(=O)O)c(F)c3)no2)cc1C , recorded pKi = 8.00

S1P1 (Homo sapiens (Human), UniProt P21453) assay, compound CC1CCCCN1c1ccc(-c2nc(-c3ccc(C(=O)O)c(F)c3)no2)cc1C#N (centres unmarked) , recorded pKi = 7.15

S1P1 (Homo sapiens (Human), UniProt P21453) assay, compound Cc1cc(-c2nc(-c3ccccc3OC(F)(F)F)no2)ccc1-c1ccccc1C(F)(F)F , recorded pKi = 7.80

====

pKi for S1P1 (Homo sapiens (Human), UniProt P21453), merged from several publications.
pKi: −log10 of the molar value.
Mark class 0 for pKi values under 8, and class 1 for everything at or above.

Q. Reported pKi at or above 8? Fc1ccc(F)c(-c2noc(-c3cnn(C4CCCCC4)c3-c3ccncc3)n2)c1
A. class 1

Q. Reported pKi at or above 8? Cc1ccccc1-c1ccc(-c2nc(-c3ccc(OCC(=O)O)c(F)c3)no2)cc1C
A. class 0

Q. Reported pKi at or above 8? Cc1ccccc1-c1ccc(-c2nc(-c3ccc4nc[nH]c4c3)no2)cc1CN(C)C
A. class 1

Q. Reported pKi at or above 8? c1cc(-c2c(-c3nc(-c4ccc(Cn5ncnn5)cc4)no3)cnn2C2CCCCC2)ccn1
A. class 1

Q. Reported pKi at or above 8? COCc1cc(-c2nc(-c3cccc(CN(C)CCC(=O)O)c3)no2)ccc1-c1ccccc1C
A. class 1

Q. Reported pKi at or above 8? COCc1cc(-c2nc(-c3ccc(C(=O)O)c(F)c3)no2)ccc1-c1ccccc1F
A. class 0

Q. Reported pKi at or above 8? CC1CCCCN1c1ccc(-c2nc(-c3ccc(OCC(=O)O)c(F)c3)no2)cc1C(F)(F)F (centres unmarked)
A. class 1

Q. Reported pKi at or above 8? COCc1cc(-c2nc(-c3cccc(CO)c3)no2)ccc1-c1ccccc1C
A. class 1

Q. Reported pKi at or above 8? O=C(O)C1CCN(Cc2ccc(-c3noc(-c4cnn(C5CCCCC5)c4C4CCCO4)n3)cc2)CC1 (centres unmarked)
A. class 1

Q. Reported pKi at or above 8? O=C(O)c1cnn(Cc2ccc(-c3noc(-c4cnn(C5CCCCC5)c4-c4ccncc4)n3)cc2)c1
A. class 0

Q. Reported pKi at or above 8? CC(C)Cc1ccc(-c2nc(-c3ccc([C@@H](C)N[C@H]4C[C@@H](C(=O)O)C4)cc3)no2)cc1
A. class 1

Q. Reported pKi at or above 8? CCOCc1cc(-c2nc(-c3ccc(C(=O)O)c(F)c3)no2)ccc1-c1ccccc1C
A. class 0

Q. Reported pKi at or above 8? Cc1ccccc1-c1ccc(-c2nc(-c3ccc(C(=O)O)c(F)c3)no2)cc1C(F)(F)F
A. class 0

====

Ki for S1P1 (Homo sapiens (Human)), merged from several publications.
// unit must come after the numeric part

S1P1 (Homo sapiens (Human)) assay, compound COc1ccc(F)cc1-c1noc(-c2ccc(N3CCCCC3C)c(C(F)(F)F)c2)n1 (centres unmarked) , recorded Ki = 3 nM

S1P1 (Homo sapiens (Human)) assay, compound CC1CCCCN1c1ccc(-c2nc(-c3ccc4c(c3)CNCC4)no2)cc1C#N (centres unmarked) , recorded Ki = 0.8 nM

S1P1 (Homo sapiens (Human)) assay, compound COCc1cc(-c2nc(-c3ccc(C(=O)NCC(=O)OC)c(F)c3)no2)ccc1-c1ccccc1C , recorded Ki = 0.9 nM

S1P1 (Homo sapiens (Human)) assay, compound FC(F)(F)Oc1ccccc1-c1noc(-c2ccc(N3CCCCC3)cc2)n1 , recorded Ki = 652 nM

S1P1 (Homo sapiens (Human)) assay, compound CC1CCCCN1c1ccc(-c2nc(-c3ccc(C(=O)O)c(Cl)c3)no2)cc1NS(C)(=O)=O (centres unmarked) , recorded Ki = 69 nM

S1P1 (Homo sapiens (Human)) assay, compound COCc1cc(-c2nc(-c3ccc(C(=O)O)c(F)c3)no2)ccc1-c1cccc(C)c1C , recorded Ki = 16 nM

S1P1 (Homo sapiens (Human)) assay, compound CC1CCCCN1c1ccc(-c2nc(-c3ccc(S(N)(=O)=O)cc3)no2)cc1NS(C)(=O)=O (centres unmarked) , recorded Ki = 10 nM

S1P1 (Homo sapiens (Human)) assay, compound COCc1cc(-c2nc(-c3ccc(C(=O)O)c(F)c3)no2)ccc1N1CCCCC1C (centres unmarked) , recorded Ki = 2.7 nM

S1P1 (Homo sapiens (Human)) assay, compound COCc1cc(-c2nc(-c3cccc(S(C)(=O)=O)c3)no2)ccc1-c1ccccc1C , recorded Ki = 1.6 nM

S1P1 (Homo sapiens (Human)) assay, compound COCc1cc(-c2nc(-c3cccc(S(N)(=O)=O)c3)no2)ccc1-c1ccccc1C , recorded Ki = 0.8 nM

S1P1 (Homo sapiens (Human)) assay, compound CC1CCCCN1c1ccc(-c2nc(-c3ccc(C(=O)O)cc3F)no2)cc1C(F)(F)F (centres unmarked) , recorded Ki = 505 nM

S1P1 (Homo sapiens (Human)) assay, compound COCc1c(-c2nc(-c3cccc(C(=O)NCCC(=O)O)c3)no2)cnn1C1CCCCC1 , recorded Ki = 257 nM

S1P1 (Homo sapiens (Human)) assay, compound c1cc(-c2c(-c3nc(-c4ccc(Cc5nnn[nH]5)cc4)no3)cnn2C2CCCCC2)ccn1 , recorded Ki = 76 nM

S1P1 (Homo sapiens (Human)) assay, compound CC(C)Cc1ccc(-c2nc(-c3ccc([C@@H](C)N[C@H]4C[C@H](C(=O)O)C4)cc3)no2)cc1 , recorded Ki = 4.6 nM

S1P1 (Homo sapiens (Human)) assay, compound Cc1cc(-c2nc(-c3ccc(C(=O)O)cc3F)no2)ccc1-c1cscc1C , recorded Ki = 172 nM

S1P1 (Homo sapiens (Human)) assay, compound COCc1cc(-c2nc(-c3ccc(OCC(=O)O)c(F)c3)no2)ccc1-c1ccccc1C , recorded Ki = 11 nM

S1P1 (Homo sapiens (Human)) assay, compound COCc1c(-c2nc(-c3ccc(C(=O)NCCC(=O)O)cc3)no2)cnn1C1CCCCC1 , recorded Ki = 9.9 nM
